# system-under-test: human EHMT2 913-1193 (Homo sapiens, UniProt Q96KQ7)
# Construct: recombinant purified human EHMT2 913-1193, Viva; purchased Viva
# Sequence (Q96KQ7 913-1193): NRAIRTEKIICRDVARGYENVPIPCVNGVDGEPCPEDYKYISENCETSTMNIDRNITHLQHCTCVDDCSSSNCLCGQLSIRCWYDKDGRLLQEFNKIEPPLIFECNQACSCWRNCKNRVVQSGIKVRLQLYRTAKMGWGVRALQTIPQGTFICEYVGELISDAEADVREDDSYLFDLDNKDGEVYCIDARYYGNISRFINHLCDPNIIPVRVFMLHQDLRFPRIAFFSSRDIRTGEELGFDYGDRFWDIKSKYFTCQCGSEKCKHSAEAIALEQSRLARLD
# method: EHMT2 enzyme assay on histone peptide substrate (EHMT2 PEP)
# Type: biochemical
# test-parameters: Table II; read-out: EHMT2 PEP (IC50 μM)
measured-quantity: IC50

The cases that follow already have their IC50 on record.
molecule	measured-quantity	reported-value
CC(=O)N1CCC(CNc2ccnc(Nc3cccc(NC(=O)c4cc(C5CC5)on4)c3)n2)CC1 [Compound 122]	IC50	> 10 µM
COc1ccc(Nc2nccc(NCc3cccnc3)n2)cc1OCCCN1CCCC1 [Compound 25]	IC50	< 0.1 µM
COc1ccc(Nc2nccc(NCC3CCOCC3)n2)cc1OCCCN1CCCC1 [Compound 3]	IC50	< 0.1 µM

Lookup: Fill blank: measured IC50 of the molecule COc1ccc(Nc2nccc(N3CCCOCC3)n2)cc1OCCCN1CCCC1 [Compound 151] is ____.
Found: > 10 µM

Lookup: Fill blank: measured IC50 of the molecule COc1ccc(Nc2nccc(N3CC(C(=O)N(C)C)C3)n2)cc1OCCCN1CCCC1 [Compound 170] is ____.
Found: > 10 µM

Lookup: Fill blank: measured IC50 of the molecule COc1ccc(Nc2nccc(N(C)CC3CCN(C(C)=O)CC3)n2)cc1OCCCN1CCCC1 [Compound 172] is ____.
Found: 1 to 10 µM

Lookup: Fill blank: measured IC50 of the molecule CNc1cccc(Nc2ccc(OC)c(OCCCN3CCCC3)c2)n1 [Compound 176] is ____.
Found: > 10 µM

Lookup: Fill blank: measured IC50 of the molecule COc1ccc(Nc2nccc(NCC3CCNCC3)n2)cc1OCCCC1CCCC1 [Compound 109] is ____.
Found: 1 to 10 µM

###

# system-under-test: human EHMT2 913-1193 (Homo sapiens)
# Construct: recombinant purified human EHMT2 913-1193, Viva; purchased Viva
# method: EHMT2 enzyme assay on histone peptide substrate (EHMT2 PEP)
# Type: biochemical
# test-parameters: Table II; read-out: EHMT2 PEP (IC50 μM)
Structures can show the parent of a compound that is named as a salt.
measured-quantity: IC50

compound	system-under-test	IC50
COc1ccc(Nc2ccnc(N(C)CC3CCN(C(C)=O)CC3)c2)cc1OCCCN1CCCC1	human EHMT2 913-1193 (Homo sapiens)	> 10 µM
COCCNc1nccc(N)n1	human EHMT2 913-1193 (Homo sapiens)	> 10 µM
COc1ccc(Nc2nccc(NCC3CCNCC3)n2)cc1OCC(O)CN1CCCC1 (stereo not shown)	human EHMT2 913-1193 (Homo sapiens)	< 0.1 µM
COc1ccc(Nc2ncc(N)cn2)cc1OCCCN1CCCC1	human EHMT2 913-1193 (Homo sapiens)	> 10 µM
CNc1ccnc(Nc2ccc3c(c2)N(C(=O)CCN(C)C)CC3)n1	human EHMT2 913-1193 (Homo sapiens)	> 10 µM
CCCCNc1nccc(NCCCN)n1	human EHMT2 913-1193 (Homo sapiens)	> 10 µM

Lookup: Fill blank: measured IC50 of the compound `CNc1cnnc(Nc2ccc(OC)c(OCCCN3CCCC3)c2)c1` is ____.
Found: 0.1 to 1 µM

Lookup: Fill blank: measured IC50 of the compound `COc1ccc(Nc2ccnc3[nH]ccc23)cc1OCCCN1CCCC1` is ____.
Found: 1 to 10 µM

Lookup: Fill blank: measured IC50 of the compound `CCCCNc1ncc(C#N)c(NCC2CCNCC2)n1` is ____.
Found: > 10 µM

Lookup: Fill blank: measured IC50 of the compound `CC(C)Nc1ccnc(Nc2cccc(OCCCN3CC[C@@H](F)C3)c2)n1` is ____.
Found: > 10 µM

Lookup: Fill blank: measured IC50 of the compound COc1ccc(Nc2ccnc(NCC3CCNCC3)n2)cc1OCCCN1CCCC1 [Compound 7, hydrochloride] is ____.
Found: < 0.1 µM

###

# system-under-test: EHMT1 (Homo sapiens)
# Sequence (Q9H9B1 whole entry, species assumed): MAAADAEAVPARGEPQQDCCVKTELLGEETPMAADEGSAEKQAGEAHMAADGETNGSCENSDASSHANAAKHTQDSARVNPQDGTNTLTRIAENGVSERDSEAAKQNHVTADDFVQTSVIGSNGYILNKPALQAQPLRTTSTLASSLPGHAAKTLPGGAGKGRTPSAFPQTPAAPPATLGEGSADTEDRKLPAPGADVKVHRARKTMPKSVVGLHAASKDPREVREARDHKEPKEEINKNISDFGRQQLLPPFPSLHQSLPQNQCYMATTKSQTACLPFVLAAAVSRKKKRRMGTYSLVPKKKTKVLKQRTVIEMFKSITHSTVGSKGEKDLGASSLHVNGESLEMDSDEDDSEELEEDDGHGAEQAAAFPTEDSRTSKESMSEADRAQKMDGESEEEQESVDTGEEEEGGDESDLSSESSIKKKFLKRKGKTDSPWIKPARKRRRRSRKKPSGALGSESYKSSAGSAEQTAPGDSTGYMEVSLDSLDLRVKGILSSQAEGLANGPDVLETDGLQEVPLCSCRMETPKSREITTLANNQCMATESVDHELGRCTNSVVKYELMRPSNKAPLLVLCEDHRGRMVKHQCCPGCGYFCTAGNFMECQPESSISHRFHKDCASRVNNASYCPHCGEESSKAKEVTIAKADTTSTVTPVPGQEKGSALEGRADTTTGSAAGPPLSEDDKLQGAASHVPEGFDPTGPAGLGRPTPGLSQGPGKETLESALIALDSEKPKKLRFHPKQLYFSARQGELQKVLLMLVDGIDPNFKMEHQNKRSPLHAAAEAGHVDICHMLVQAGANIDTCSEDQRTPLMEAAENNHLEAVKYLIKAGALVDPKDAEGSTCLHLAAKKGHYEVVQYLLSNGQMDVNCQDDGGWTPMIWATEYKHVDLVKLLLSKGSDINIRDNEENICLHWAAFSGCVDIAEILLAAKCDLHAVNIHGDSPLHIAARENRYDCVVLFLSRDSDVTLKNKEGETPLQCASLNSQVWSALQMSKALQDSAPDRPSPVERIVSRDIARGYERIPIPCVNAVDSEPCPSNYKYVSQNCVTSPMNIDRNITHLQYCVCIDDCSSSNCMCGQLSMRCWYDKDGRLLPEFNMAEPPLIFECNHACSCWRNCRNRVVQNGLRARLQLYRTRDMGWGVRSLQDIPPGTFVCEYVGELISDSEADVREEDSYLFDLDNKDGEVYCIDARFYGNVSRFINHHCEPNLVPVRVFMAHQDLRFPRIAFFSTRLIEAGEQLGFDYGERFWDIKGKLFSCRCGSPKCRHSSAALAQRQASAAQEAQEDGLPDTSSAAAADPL
# method: EHMT1 enzyme assay on peptide substrate (EHMT1 PEP)
# Type: biochemical
# test-parameters: Table III; read-out: EHMT1 PEP (IC50 μM)
Recorded IC50 by entry

The cases that follow already have their IC50 on record.
compound	measured-quantity	reported-value
COc1ccc(Nc2nc(C)cc(NCC3CCOCC3)n2)cc1OCC1CCN(C)C1 (stereo not drawn) [Compound 451]	IC50	< 0.1 µM
CNc1cc(C#N)nc(Nc2ccc(OC)c(OCCCN3CCCC3)c2)n1 [Compound 384]	IC50	> 10 µM
CNc1cc(C)nc(Nc2ccc(OC)c(OCCOC)c2)n1 [Compound 311]	IC50	> 10 µM
CNc1cc(C)nc(Nc2ccc(F)c(OCCCN3CCCC3)c2)n1 [Compound 356]	IC50	> 10 µM
COc1cnc(Nc2nc(C)cc3[nH]ccc23)cc1OCCCN1CCCC1 [Compound 310]	IC50	0.1 to 1 µM
CNc1ccnc(Nc2ccc3cn(CCCN(C)C)nc3c2)n1 [Compound 405]	IC50	> 10 µM
CNc1cc(C)nc(Nc2ccc(C3CC3)c(OCCCN3CCCC3)c2)n1 [Compound 313]	IC50	0.1 to 1 µM
COc1ccc(Nc2ccc3ncn(C)c3n2)cc1OCCCN1CCCC1 [Compound 342]	IC50	> 10 µM

Lookup: Fill blank: measured IC50 of the compound COc1ccc(Nc2nccc(NC(C)C3CCOCC3)n2)cc1OCCCN1CCCC1 (stereo not drawn) [Compound 378] is ____.
Found: 0.1 to 1 µM

###

# system-under-test: EHMT1 (Homo sapiens)
# method: EHMT1 enzyme assay on peptide substrate (EHMT1 PEP)
# Assay type: biochemical
# test-parameters: Table VI; read-out: EHMT1 PEP IC50
Recorded IC50 by entry

The cases that follow already have their IC50 on record.
compound	IC50
COc1cc2c(C3CCN(C4CCOC4)CC3)nc(C)nc2cc1OCCCN1CCCC1 (stereo not shown)	1000 to 10000 nM
CNc1cc(C)nc(Nc2ccc(OC)c(C(=O)NC3CCN(C)CC3)c2)n1	> 10000 nM
COc1cnc(Nc2cccc3nncn23)nc1OCCCN1CCCC1	> 10000 nM
CC(C)N1CC(COc2cnc(NC3CCNCC3)nc2)C1	> 10000 nM
CCN1CC(COc2cc(Nc3cccn4cnnc34)ncc2OC)C1	> 10000 nM
CNCCN(C)Cc1cc(Nc2nc(C)cc(NC)n2)ccc1OC	1000 to 10000 nM

Lookup: Fill blank: measured IC50 of the compound CNc1nc(C2CCN(C)C2)c2cc(OC)c(OCCCN3CCCC3)cc2n1 (stereo not shown) is ____.
Found: 100 to 1000 nM

Lookup: Fill blank: measured IC50 of the compound `COc1cc2c(C3CCN([C@@H]4CCOC4)CC3)cc(C)nc2cc1OCCCN1CCCC1` is ____.
Found: < 100 nM

Lookup: Fill blank: measured IC50 of the compound COc1nc(NC2CCNCC2)ncc1OCC1CCN(C)C1 (stereo not shown) is ____.
Found: > 10000 nM

Lookup: Fill blank: measured IC50 of the compound `CNc1cc2nccn2c(Nc2cc(OCCCN3CCCC3)c(OC)cn2)n1` is ____.
Found: 1000 to 10000 nM

Lookup: Fill blank: measured IC50 of the compound `COc1cc2c(C)cc(N3CCOCC3)nc2cc1OCCCN1CCCC1` is ____.
Found: 1000 to 10000 nM

Lookup: Fill blank: measured IC50 of the compound `CNc1cc(C2CCOCC2)c2cc(OC)c(OCCCN3CC(O)C3)cc2n1` is ____.
Found: < 100 nM

Lookup: Fill blank: measured IC50 of the compound `CNc1ccnc(Nc2ccc(OC)c(CNC[C@H]3CCCN3)c2)n1` is ____.
Found: 1000 to 10000 nM

Lookup: Fill blank: measured IC50 of the compound `COc1cc2c(C3CCOCC3)cc(N(C)C)nc2cc1OCCCN1CCCC1` is ____.
Found: 100 to 1000 nM

Lookup: Fill blank: measured IC50 of the compound `CNc1cc(C)nc(Nc2cc(OC[C@H](O)CN3CCCC3)c(OC)cn2)n1` is ____.
Found: 1000 to 10000 nM

Lookup: Fill blank: measured IC50 of the compound `CNc1cc(C2CCOCC2)c2cc(OC)c(OC[C@@H]3CCN(C)C3)cc2n1` is ____.
Found: < 100 nM

Lookup: Fill blank: measured IC50 of the compound COc1cc(NC2CCNCC2)ncc1OCC1CCN(C)C1 (stereo not shown) is ____.
Found: 100 to 1000 nM

Lookup: Fill blank: measured IC50 of the compound CNC(=O)C1CCN(c2cc3nc(NC)cc(C)c3cc2OC)C1 (stereo not shown) is ____.
Found: > 10000 nM
